src = PubChem BioAssay AID904

# Method description: qHTS Screen for Compounds that Selectively Target Cancer Cells with p53 Mutations: Cytotoxicity of p53 Null Cells at the Nonpermissive Temperature; note: nearly all actives have a fitted effect of over 50% in size; note: potency is the fitted concentration of half-maximal effect
# Details: H1299 p53-null (neo) cells, 39C, ATPlite viability, 24 h; series mostly up to 46.1 µM
Out of some 55,000 compounds screened, about 530 (0.96%) were called active. About 7% were inconclusive and are not listed. The list comes from a sample in which actives are over-represented; it also holds close analogues and randomly drawn compounds.
Assay readout: Potency

Answered examples (6):
[[record]]
compound = "O=C(Nc1nc2c(s1)CCCC2)c1ccccc1F"
reported = "7.94 µM (active)"

[[record]]
compound = "O=C(CSc1nc2c(c(=O)[nH]1)CN(Cc1ccc(F)cc1)CC2)Nc1ccccc1Cl"
reported = "inactive"

[[record]]
compound = "CC(NC(=S)Nc1ccccc1)C1COc2ccccc2O1 (stereo unspecified)"
reported = "inactive"

[[record]]
compound = "c1ccc(-c2noc(-c3cccs3)n2)nc1"
reported = "14.1 µM (active)"

[[record]]
compound = "COc1ccc(NC(=O)Cn2c(=O)n(CCC(C)C)c(=O)c3cccnc32)cc1Cl"
reported = "inactive"

[[record]]
compound = "CC(C)c1ccc(NC(=O)c2ccc3c(O)c(S(=O)(=O)c4ccccc4)c(=O)[nH]c3c2)cc1"
reported = "7.94 µM (active)"


Incoming: I am curious: what Potency value has been reported for Cc1ccccc1NC(=O)c1c(NC(=O)c2ccccc2F)sc2c1CCC(C)C2 (stereo unspecified) ?
Outgoing: inactive

Incoming: I am curious: what Potency value has been reported for CCn1c2ccccc2c2nnc(N3CCN(c4cc(C)ccc4C)CC3)nc21 ?
Outgoing: inactive

Incoming: I am curious: what Potency value has been reported for COc1ccc(-c2nnc(SCc3cccnc3)o2)cc1 ?
Outgoing: inactive

Incoming: I am curious: what Potency value has been reported for Cc1cc[n+](-c2[nH]c(=O)sc2/C=N/NC(=O)c2ccccc2[O-])cc1C ?
Outgoing: inactive

Incoming: I am curious: what Potency value has been reported for Cc1ccc(CSc2nc3cccnc3n2Cc2ccc(C(=O)NC3CC3)cc2)cc1 ?
Outgoing: 3.16 µM (active)

Incoming: I am curious: what Potency value has been reported for O=C(ON=C1CCN(S(=O)(=O)c2ccccc2)CC1)c1ccc(Cl)cc1 ?
Outgoing: inactive

Incoming: I am curious: what Potency value has been reported for Cc1ccc(C(=O)Nc2ccc3[nH]c(=O)c(=O)[nH]c3c2)cc1 ?
Outgoing: inactive

Incoming: I am curious: what Potency value has been reported for Clc1ccc(-n2nnnc2-c2cnc(-c3ccccn3)nc2-c2cccs2)cc1 ?
Outgoing: inactive

Incoming: I am curious: what Potency value has been reported for Cc1cc(C)cc(OC(C)C(=O)Nc2nc3c(s2)CCCC3)c1 (stereo unspecified) ?
Outgoing: inactive

Incoming: I am curious: what Potency value has been reported for O=C(CNS(=O)(=O)c1cccs1)N1CCN(c2ccccc2Cl)CC1 ?
Outgoing: inactive

Incoming: I am curious: what Potency value has been reported for CCc1nnc(SCC(=O)Nc2cc(OC)ccc2OC)nc1CC ?
Outgoing: inactive
